method: Primary qHTS Assay for Foot and Mouth Disease Virus Antivirals against NCGC Sytravon and CBC Compound Libraries: Renilla Luciferase Signal; note: nearly all actives have a fitted effect of over 55% in size
particulars: FMDV replicon cells; series mostly up to 57.5 µM
The campaign covered roughly 120,000 compounds. About 370 (0.31%) were called active. Not shown: some 4% with an inconclusive outcome. Calls come from the whole dose curve. The entries come from a sample that favours actives as a whole.
Outcomes: label 1 = active, label 0 = inactive

compound | cat
CCOC(=O)c1c(S(=O)(=O)Nc2cc(Cl)c(OC)cc2OC)c(C)n(C)c1C | label 0
N#Cc1ccccc1COC(=O)c1ccccc1NCCO | label 0
CCOc1ccc(CCNC(=O)C(C)n2nc(C)n3c(cc4sccc43)c2=O)cc1OCC (stereo not given) | label 0
Fc1cc(CSc2nncn2C2CC2)c2ncccc2c1 | label 0
O=C(OC1CCCCC1=O)c1ccc(Cl)c(Cl)c1 (stereo not given) | label 0
O=C(Cc1c[nH]c2ccccc12)N1CCN(C(=O)c2ccccc2)CC1 | label 0
COc1ccc(S(=O)(=O)N2CCC(C(=O)NCc3cccnc3)CC2)cc1 | label 0
COc1ccc(/C=C/c2nc3ccccc3o2)cc1OCC(C)C | label 0
O=S1(=O)c2ccc(N3CCN(Cc4ccccc4F)CC3)cc2Oc2ccccc2CN1Cc1cn(Cc2ccc(Cl)cc2)nn1 | label 0
CC(=O)Oc1ccc2c(C)c(-c3ccccc3)c(=O)oc2c1 | label 0
Cc1c(-c2ccccc2)oc2c(C(=O)OCC(=O)C(C)(C)C)cccc2c1=O | label 0
Cc1ccc(CC(=O)N(C)CC(=O)N(CC(C)C)c2c(N)n(CC(C)C)c(=O)[nH]c2=O)cc1C | label 0
O=C1c2ccccc2NC(c2cnc3ccccc3n2)N1c1ccc(F)cc1 (stereo not given) | label 0
CCOC(=O)c1ccc(Oc2coc3cc(OC)ccc3c2=O)cc1 | label 0
CC(C)(C)C(=O)NCCCC(=O)NCCc1ccccc1 | label 0
O=C(Cc1ccc(F)cc1)Nc1c(NC2CCCCC2)c2ccccc2oc1=O | label 0
O=C(Nc1ccc2oc(-c3cccc(Br)c3)nc2c1)c1cccs1 | label 0
CCC(C)NCCC(c1ccccc1)c1ccc(C)c(C)c1O (stereo not given) | label 0
CCc1cccc(-n2nnc(-c3nsc(NC(=O)c4ccc(C)cc4)n3)c2C)c1 | label 0
Cc1cc2nc(/N=C(\N)NC(=O)Cc3ccccc3)nc(C)c2cc1C | label 0
CN(C)S(=O)(=O)c1cccc(C(=O)Nc2cccc(Oc3ccccc3)c2)c1 | label 0
O=C(COc1ccc2c(c1)CCC2)OCC(=O)c1ccc2c(c1)OCCO2 | label 0
O=C(CCC(=O)c1ccc(Cl)cc1)OCc1ccc(Cl)cc1Cl | label 0
COc1ccc(OC)c(C2c3c(n[nH]c3C)Nc3[nH]c(=O)[nH]c(=O)c32)c1 (stereo not given) | label 0
COc1cccc(CNC(=O)N2CCN(Cc3ccc(Br)s3)CC2)c1 | label 0
Cc1cccc(NC(=O)CN2CCCN(c3ncc(C(F)(F)F)cc3Cl)CC2)c1 | label 0
COc1ccc(/C=C/c2ccc3cccc(O)c3n2)cc1OC | label 0
Cc1cc2oc(=O)cc(CN3CCN(c4ccccc4)CC3)c2cc1O | label 0
CCC(Nc1ccc2oc(C)nc2c1)C(=O)Nc1ccc(F)cc1 (stereo not given) | label 0
Cc1nn(Cc2ccc(F)cc2)c(C)c1NC(=O)c1noc2c1CCc1ccccc1-2 | label 0
Cc1cccc2nc(-c3ccc(N4CCOCC4)cc3)c(Nc3ccc4c(c3)OCCO4)n12 | label 0
Cc1ccc(C)c(NC(NC(=O)c2cccc(Cl)c2)C(Cl)(Cl)Cl)c1 (stereo not given) | label 0
COc1ccc(CNc2oc(-c3ccc(C)cc3)nc2C#N)cc1 | label 0
COC(=O)CN1CCCC1c1ccsc1 (stereo not given) | label 0
CC(C)c1ccc2oc(=O)cc(CN3CCN(Cc4ccccc4)CC3)c2c1 | label 0
COc1ccc(-n2nnc(-c3nsc(NC(=O)c4ccc(C)c(C)c4)n3)c2C)cc1Cl | label 0
CSCCCNC(=S)NNC(N)=O | label 0
O=C(CSc1ccc2c(c1)OCCCO2)NC(c1ccccc1)c1cccs1 (stereo not given) | label 0
Fc1ccc(Oc2ccc(CNc3ncccn3)cn2)cc1 | label 0
C=C(C)CN1CCN(c2oc(C3CC3)nc2C#N)CC1 | label 0
CCOC(=O)c1cnc(Nc2ccccc2)c2ccccc12 | label 0
Cc1c(-c2nsc(NC(=O)c3cccc(Cl)c3)n2)nnn1-c1ccccc1C(F)(F)F | label 1
Cc1ccc(N/N=C/C=C/c2ccccc2)cc1Cl | label 0
CCCCn1c(=O)[nH]c(=O)c2c1nc(CSc1nnc(-c3ccco3)n1C)n2CC | label 0
CCC(C)NC(=O)CSc1ncc(-c2cccc(Br)c2)o1 (stereo not given) | label 0
